Reported pKd by item:
Assay: PGRMC1 binding assay control: non-specific [^3H] ligand association with membranes from untransformed bacteria (−PGRMC1)
Design: species or system E. coli
Settings: two binding site model fit of saturation data; −PGRMC1 membranes; non-specific site; read-out: Kd1
pKd (log units): -log10 of the concentration in mol/L.

Query string: State the recorded pKd for this entry: CC(=O)[C@H]1CC[C@H]2[C@@H]3CCC4=CC(=O)CC[C@]4(C)[C@H]3CC[C@]12C [Progesterone, progesterone]
Result string: 2.77

New cases:
Query string: For CC(C)CCC[C@@H](C)[C@H]1CC[C@H]2[C@@H]3CC=C4C[C@@H](O)CC[C@]4(C)[C@H]3CC[C@]12C [Cholesterol, cholesterol] , what is its reported pKd?
Result string: 3.05

* * *

Biological target: His10-PGRMC1 (Homo sapiens)
Construct: a product containing the full length coding region of PGMRC1 flanked by Nde1 and BamHI restriction sites; made in house; host or cells: E. coli BL21 (DE3) / BL21 codon plus (RIPL); purified bacterial membranes
Sequence (O00264 whole entry): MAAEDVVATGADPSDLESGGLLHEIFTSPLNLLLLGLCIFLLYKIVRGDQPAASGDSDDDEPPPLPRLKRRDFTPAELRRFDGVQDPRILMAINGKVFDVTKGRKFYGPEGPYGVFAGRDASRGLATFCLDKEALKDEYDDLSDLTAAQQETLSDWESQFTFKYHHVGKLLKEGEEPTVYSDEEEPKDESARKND
Experiment: Competition of cold competitors with [^3H] progesterone or [^3H] cholesterol for His10-PGRMC1 binding
Details: competitor at ten-fold higher concentration
Description: The standard 10 μL binding reaction contained 10 μp purified membranes (total protein) and 10 μM [^3H] progesterone or [^3H] cholesterol (3,000-5,000 cpm) in buffer A: 20% ethanol. Stock solutions (100 μM) of [^3H] cholesterol and [^3H] progesterone containing ˜4×10^4 cpm/μL, were prepared in 95% ethanol. […] The fractions were then counted in a multi-well scintillation counter (Wallac Microbeta Triluxmax, Waltham, Mass.) for 30 seconds each. […]
property: effect of cold competitor on binding of [^3H] cholesterol

Query string: What effect of cold competitor on binding of [^3H] cholesterol value was documented for this compound, CC(=O)[C@H]1CC[C@H]2[C@@H]3CCC4=CC(=O)CC[C@]4(C)[C@H]3CC[C@]12C [Progesterone, progesterone] ?
Result string: unaffected

Query string: What about CC(C)[C@@H](C)/C=C/[C@@H](C)[C@H]1CC[C@H]2C3=CC=C4C[C@@H](O)CC[C@]4(C)[C@H]3CC[C@]12C [ergosterol] ?
Result string: unaffected

Query string: Would you kindly repeat that for C=CC1=C(C)c2cc3[n-]c(cc4[n-]c(cc5nc(cc1n2)C(C)=C5C=C)c(C)c4CCC(=O)O)c(CCC(=O)O)c3C.[Fe+2] [heme] ?
Result string: unaffected
